ASSAY_PROTOCOL: Metabolic stability in human liver microsomes assessed as half life
Assay type: ADME, Microsome
log10 of half-life by entry:
Heads up: the numbers are on a log10 scale; they represent half-life in h.

Answered examples (4):
- MOLECULE: "COCCn1cnc2ccc(NC(=O)Nc3cccc(C(C)=O)c3)cc2c1=O"
  log10 of half-life: 0.30
- MOLECULE: "COCCn1c(=O)c2cc(NC(=O)Nc3cccc(C(C)=O)c3)ccc2n(C(C)C)c1=O"
  log10 of half-life: -0.10
- MOLECULE: "COCCn1c(=O)c2cc(NC(=O)Nc3cccc(C(C)=O)c3)ccc2n(CCN2CCCCC2)c1=O"
  log10 of half-life: -0.39
- MOLECULE: "COCCn1cnc2ccc(NC(=O)Nc3cccc(OC)c3)cc2c1=O"
  log10 of half-life: 0.38

Lookup: For the molecule `COCCn1c(=O)c2cc(NC(=O)Nc3cccc(C(C)=O)c3)ccc2n(CCN2CCCC2)c1=O` , report log10 of half-life.
Found: 0.41

Lookup: Item `COCCn1cnc2ccc(NC(=O)Nc3cccc(C(=O)C(F)(F)F)c3)cc2c1=O` : provide log10 of half-life
Found: 0.18

Lookup: Give the reported log10 of half-life for this molecule. `COCCn1c(=O)[nH]c2ccc(NC(=O)Nc3cccc(C(C)=O)c3)cc2c1=O`
Found: 0.85

Lookup: In one line, give reported log10 of half-life of the entry COCCn1cnc2ccc(NC(=O)Nc3cccc(C(O)C(F)(F)F)c3)cc2c1=O (stereo not drawn) .
Found: -0.12

---

SYSTEM_TESTED: COP1-AGTL (Homo sapiens) (UniProt Q96AD5+Q8NHY2)
Sequence (Q8NHY2 whole entry, looked up): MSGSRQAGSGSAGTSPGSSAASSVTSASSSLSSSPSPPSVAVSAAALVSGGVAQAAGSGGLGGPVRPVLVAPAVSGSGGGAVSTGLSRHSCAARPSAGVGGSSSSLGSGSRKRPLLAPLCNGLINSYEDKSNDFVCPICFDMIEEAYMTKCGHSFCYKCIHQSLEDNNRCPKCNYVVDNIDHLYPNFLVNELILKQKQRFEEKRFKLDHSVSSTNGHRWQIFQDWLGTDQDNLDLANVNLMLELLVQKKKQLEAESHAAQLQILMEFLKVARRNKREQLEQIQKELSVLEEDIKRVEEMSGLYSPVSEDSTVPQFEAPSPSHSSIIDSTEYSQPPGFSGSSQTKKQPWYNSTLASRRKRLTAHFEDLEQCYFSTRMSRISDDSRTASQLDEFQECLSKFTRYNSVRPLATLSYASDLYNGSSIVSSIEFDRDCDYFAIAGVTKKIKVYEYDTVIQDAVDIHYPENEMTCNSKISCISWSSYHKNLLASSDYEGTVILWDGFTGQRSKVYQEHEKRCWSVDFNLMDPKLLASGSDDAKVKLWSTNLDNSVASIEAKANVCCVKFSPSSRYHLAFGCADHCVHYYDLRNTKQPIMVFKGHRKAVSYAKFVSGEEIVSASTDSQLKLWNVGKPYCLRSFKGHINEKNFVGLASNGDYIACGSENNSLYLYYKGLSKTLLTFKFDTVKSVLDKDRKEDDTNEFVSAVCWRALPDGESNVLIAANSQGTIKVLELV
Sequence (Q96AD5 whole entry, looked up): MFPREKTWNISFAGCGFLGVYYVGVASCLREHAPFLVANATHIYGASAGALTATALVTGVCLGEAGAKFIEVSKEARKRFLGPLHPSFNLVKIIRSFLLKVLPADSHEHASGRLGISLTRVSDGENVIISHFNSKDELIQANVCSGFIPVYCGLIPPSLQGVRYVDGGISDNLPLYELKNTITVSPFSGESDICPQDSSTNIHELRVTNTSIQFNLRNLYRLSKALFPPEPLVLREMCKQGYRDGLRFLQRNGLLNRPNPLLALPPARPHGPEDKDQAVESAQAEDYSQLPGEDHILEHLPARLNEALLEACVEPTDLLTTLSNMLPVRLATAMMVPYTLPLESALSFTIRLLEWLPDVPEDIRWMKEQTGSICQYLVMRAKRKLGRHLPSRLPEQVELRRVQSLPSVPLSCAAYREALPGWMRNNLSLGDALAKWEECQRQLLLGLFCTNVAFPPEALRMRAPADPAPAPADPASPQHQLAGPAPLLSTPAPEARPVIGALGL
ASSAY_PROTOCOL: Induction of COP1 to ATGL stabilization (unknown origin) expressed in HEK293-A cells assessed as reduction in ATGL ubiquitination incubated for 6 hrs by Western blotting analysis
Format: cell-based
Calls of active or inactive are those of the source. The rule behind the calls is not given here.
Please reply with one of these outcomes: 1 (active), 0 (inactive)

- MOLECULE: "COCCn1cnc2ccc(NC(=O)Nc3cccc(C(C)=O)c3)cc2c1=O"
  CAT: 1
- MOLECULE: "COCCn1cnc2ccc(NC(=O)Nc3cccc(C(C)=O)c3)c(Br)c2c1=O"
  CAT: 1
- MOLECULE: "COCCn1cnc2ccc(NC(=O)Nc3cccc(C(C)=O)c3)c(-c3ccccc3)c2c1=O"
  CAT: 1

Lookup: Status in this test for `CC(=O)c1cccc(NC(=O)Nc2ccc3nc[nH]c(=O)c3c2)c1` ?
Found: 0

Lookup: Outcome? `COCCn1cnc2ccc(NC(=O)Nc3cccc(C(C)=O)c3)c(-c3ccc(OC)cc3)c2c1=O`
Found: 0

Lookup: What was the test verdict on `CC(=O)c1cccc(NC(=O)Nc2ccc3ncn(CCN4CCCCC4)c(=O)c3c2)c1` ?
Found: 0

Lookup: Per the records of this test, what outcome belongs to `COCCn1c(=O)c2cc(NC(=O)Nc3cccc(C(C)=O)c3)ccc2n(CCN2CCCCC2)c1=O` ?
Found: 1

Lookup: Hi, sorry to bother you, what did the test record for `COCCn1cnc2ccc(NC(=O)Nc3cccc(C(C)=O)c3)c(-c3ccc(F)cc3)c2c1=O` ?
Found: 0

Lookup: Called result for COCCn1cnc2ccc(NC(=O)Nc3cccc(C(O)C(F)(F)F)c3)cc2c1=O (stereo unspecified)
Found: 0

Lookup: Could you please tell me the result logged for `COCCn1cnc2ccc(NC(=O)NC3CCN(C)CC3)cc2c1=O` in this assay?
Found: 0

Lookup: # lookup: test call for `COCCn1cnc2ccc(NC(=O)Nc3cccc(C(C)=O)c3)c(-c3ccc(C(F)(F)F)cc3)c2c1=O`
Found: 0

---

Listed here: items and their measured logD.
ASSAY_PROTOCOL: Lipophilicity, logD of compound
Type: physicochemical
RUN_CONDITIONS: octanol/water
Answer with the value's number alone.

Example cases with answers are listed next.
- COMPOUND: "COCCn1cnc2ccc(NC(=O)Nc3cccc(C(C)=O)c3)c(-c3ccc(F)cc3)c2c1=O"
  logD: 1.9
- COMPOUND: "COCCn1c(=O)[nH]c2ccc(NC(=O)Nc3cccc(C(C)=O)c3)cc2c1=O"
  logD: 2.17
- COMPOUND: "COCCn1c(=O)c2cc(NC(=O)Nc3cccc(C(C)=O)c3)ccc2n(C(C)C)c1=O"
  logD: 2.67
- COMPOUND: "COCCn1cnc2ccc(NC(=O)Nc3cccc(C(O)C(F)(F)F)c3)cc2c1=O (stereo not given)"
  logD: 2.54

Continue with the compound presented below.
Lookup: Output logD of `COCCn1cnc2ccc(NC(=O)Nc3cccc(C(C)=O)c3)cc2c1=O`
Found: 2.38

---

ASSAY_PROTOCOL: Metabolic stability in mouse liver microsomes assessed as intrinsic clearance per mg of protein
Format: ADME, Microsome
RUN_CONDITIONS: read-out: CLH
ASSAY_READOUT: microsomal CLint (µL/min/mg)
The figure you give is taken to be in µL/min/mg; do not add the unit.

- MOLECULE: "COCCn1cnc2ccc(NC(=O)Nc3cccc(C(O)C(F)(F)F)c3)cc2c1=O (stereo not given)"
  microsomal CLint / µL/min/mg: 31.7
- MOLECULE: "COCCn1cnc2ccc(NC(=O)Nc3cccc(C(=O)C(F)(F)F)c3)cc2c1=O"
  microsomal CLint / µL/min/mg: 8.2
- MOLECULE: "COCCn1cnc2ccc(NC(=O)Nc3cccc(OC)c3)cc2c1=O"
  microsomal CLint / µL/min/mg: 11
- MOLECULE: "COCCn1c(=O)c2cc(NC(=O)Nc3cccc(C(C)=O)c3)ccc2n(CCN2CCCC2)c1=O"
  microsomal CLint / µL/min/mg: 13

Kindly review the next molecule as well.
Lookup: Recall and state the measured microsomal CLint for `COCCn1c(=O)c2cc(NC(=O)Nc3cccc(C(C)=O)c3)ccc2n(CCN2CCCCC2)c1=O` .
Found: 56.2

---

Attribute: solubility
ASSAY_PROTOCOL: Aqueous solubility of compound at pH 7.4
Format: physicochemical
Reply numerically in µg/mL, unit not repeated.

- COMPOUND: "COCCn1cnc2ccc(NC(=O)Nc3cccc(C(O)C(F)(F)F)c3)cc2c1=O (configuration not stated)"
  solubility [µg/mL]: 27
- COMPOUND: "COCCn1cnc2ccc(NC(=O)Nc3cccc(C(=O)C(F)(F)F)c3)cc2c1=O"
  solubility [µg/mL]: 9.6
- COMPOUND: "COCCn1cnc2ccc(NC(=O)Nc3cccc(OC)c3)cc2c1=O"
  solubility [µg/mL]: 21.5
- COMPOUND: "COCCn1cnc2ccc(NC(=O)Nc3cccc(C(C)=O)c3)cc2c1=O"
  solubility [µg/mL]: 2.56
- COMPOUND: "COCCn1c(=O)c2cc(NC(=O)Nc3cccc(C(C)=O)c3)ccc2n(CCN2CCCCC2)c1=O"
  solubility [µg/mL]: 116

Lookup: Using known records, supply solubility for `COCCn1cnc2ccc(NC(=O)Nc3cccc(C(C)=O)c3)c(Br)c2c1=O`
Found: 3.4

Lookup: Please give measured solubility of the following entry: `COCCn1c(=O)[nH]c2ccc(NC(=O)Nc3cccc(C(C)=O)c3)cc2c1=O`
Found: 0.8

---

SYSTEM_TESTED: COP1-AGTL (Homo sapiens) (UniProt Q96AD5+Q8NHY2)
ASSAY_PROTOCOL: Induction of COP1 to ATGL stabilization (unknown origin) expressed in HEK293-A cells assessed as reduction in ATGL ubiquitination incubated for 6 hrs by Western blotting analysis
Type: cell-based
Calls of active or inactive are those of the source. No cut-off for these calls is given here.
Please state which outcome applies, choosing from active, inactive

Study these solved cases before continuing.
- COMPOUND: "CCCCn1cnc2ccc(NC(=O)Nc3cccc(C(C)=O)c3)cc2c1=O"
  CAT: "inactive"
- COMPOUND: "COCCn1c(=O)c2cc(NC(=O)Nc3cccc(C(C)=O)c3)ccc2n(CCN2CCCC2)c1=O"
  CAT: "active"
- COMPOUND: "COCCn1cnc2ccc(NC(=O)Nc3cccc(C(F)(F)F)c3)cc2c1=O"
  CAT: "inactive"
- COMPOUND: "COCCn1cnc2ccc(NC(=O)N3CCCCC3)cc2c1=O"
  CAT: "inactive"

Lookup: # fetch the recorded call for `CCc1cccc(NC(=O)Nc2ccc3ncn(CCOC)c(=O)c3c2)c1` here
Found: inactive

Lookup: Fill in: this test's call for `COCCn1cnc2ccc(NC(=O)Nc3cccc(C(C)=O)c3)c(C3=CCNCC3)c2c1=O` is ___
Found: inactive

Lookup: Which outcome was entered for the compound `COCCn1cnc2ccc(NC(=O)Nc3ccccc3C(F)(F)F)cc2c1=O` in this test?
Found: inactive

Lookup: Called result for COCCn1cnc2ccc(NC(=O)Nc3cccc(C(C)O)c3)cc2c1=O (centres undefined)
Found: inactive

Lookup: What was the test verdict on `COCCn1cnc2ccc(NC(=O)N(C)C)cc2c1=O` ?
Found: inactive

Lookup: Just curious, what result did `COCCn1c(=O)c2cc(NC(=O)Nc3cccc(C(C)=O)c3)ccc2n(C)c1=O` get here?
Found: active

Lookup: Dear all, I need the recorded test outcome for `CC(=O)c1cccc(NC(=O)Nc2ccc3ncn(CCN4CCOCC4)c(=O)c3c2)c1` , thank you.
Found: inactive
